Ref: patent US20260015350A1

IC50 values by entry
Target entity: KRas^G12A (Homo sapiens, UniProt P01116, G12A)
Construct: Biotinylated KRas (corresponding to amino acids 1-169, produced at Accelegan Inc.); biotin (biotinylated); purchased Accelegan Inc
Sequence (P01116 1-169 isoform P01116-2 G12A): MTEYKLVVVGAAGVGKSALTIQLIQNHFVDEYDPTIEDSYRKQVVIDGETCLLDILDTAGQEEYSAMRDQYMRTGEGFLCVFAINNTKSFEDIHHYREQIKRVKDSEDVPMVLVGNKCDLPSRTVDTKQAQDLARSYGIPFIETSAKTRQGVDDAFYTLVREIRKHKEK
Method notes: KRas binding assay (TR-FRET tracer displacement), KRas G12A
Experimental setup: TR-FRET tracer displacement, KRas G12A
// units = nM; emit number, no label

- Compound: "C[C@@]1(O)CCCN(c2nc(OCC34CCCN3CCC4)nc3c(F)c(-c4ccc(F)c5sc(N)nc45)ncc23)C1 [Example 735]"
  IC50 [nM]: 2680
- Compound: "Cc1cc2[nH]nnc2c(-c2ncc3c(N4CCCC5(CNC(=O)N5)C4)nc(OCC45CCCN4CCC5)nc3c2F)c1C (stereo not drawn) [Example 856]"
  IC50 [nM]: 2230
- Compound: "O=C1NCC2(CCCN(c3nc(OCC45CCCN4CCC5)nc4c(F)c(-c5c6ccccc6cc6[nH]ncc56)ncc34)C2)N1 (stereo not drawn) [Example 756]"
  IC50 [nM]: 14

Could you now consider this next compound?
Data request: Consider the compound shown here: O=C1NCC2(CCCN(c3nc(OC[C@@]45CCCN4C[C@H](F)C5)nc4c(F)c(-c5c6ccccc6cc6[nH]ncc56)ncc34)C2)N1 (stereo partly drawn) [Example 760] What is its recorded IC50?
Data returned: 91
